- System: P. falciparum NF54-pfs16-GFP late (IV-V) stage gametocytes
- Experimental Details: relative % inhibition of viable gametocyte number; higher = more gametocytocidal
- Experimental Context: 0.5 µM; stage: late (IV-V) gametocyte; incubation 72 h
relative % inhibition: recorded values

// known answers, use as guide
molecule="CCOc1cc2c(cc1OCC)C(c1cc(C)c(O)c(C)c1)NCC2 (configuration not stated)" quantity_kind="relative % inhibition" experimental_result=24.3%
molecule=COc1ccccc1C(=O)ON=C(N)Cc1cccc2ccccc12 quantity_kind="relative % inhibition" experimental_result=5.05%
molecule=CC(C)(C)c1ccc(O)c(CNC2CCCCC2)c1 quantity_kind="relative % inhibition" experimental_result=61.1%
molecule=OCCNc1nc(Nc2ccc(Cl)c(Cl)c2)nc2ccccc12 quantity_kind="relative % inhibition" experimental_result=53.9%
molecule="Oc1c(C(Nc2ccccn2)c2cccc(Oc3ccccc3)c2)ccc2cccnc12 (configuration not stated)" quantity_kind="relative % inhibition" experimental_result=18.4%
molecule=Cc1ccc(F)cc1NC(=O)c1cc(Cl)ccc1Nc1ccccc1 quantity_kind="relative % inhibition" experimental_result=23.8%

Request: Dear colleague, please send me the reported relative % inhibition for `COc1ccc2nc(C)cc(Nc3ccc(Cl)cc3)c2c1` when you can.
Response: 7.89%

Request: Answer with the recorded relative % inhibition for the molecule listed here: COc1ccc(C2c3ccc4ccccc4c3Oc3ncn(CCCn4ccnc4)c(=N)c32)cc1OC (configuration not stated)
Response: 49.2%

Request: Identify measured relative % inhibition associated with O=C(NC(c1ccccc1)c1ccc2cccnc2c1O)c1ccccc1 (configuration not stated)
Response: 35.8%

Request: Tell me relative % inhibition reported for COc1ccc(NC(=O)C2c3ccccc3C(=O)N(CC(C)C)C2c2cccs2)cc1Cl (configuration not stated)
Response: 54.9%

Request: Please indicate relative % inhibition recorded for `CCOC(=O)c1cnc2ccc(OC)cc2c1Nc1ccc(N2CCN(C)CC2)cc1`
Response: 11.9%

Request: Report relative % inhibition for COc1cccc(C(=O)NC(c2ccc(C)cc2)c2cc(Cl)c3cccnc3c2O)c1 (configuration not stated)
Response: 46.5%

Request: Check the records and state relative % inhibition for OC(CNC1CCCCC1)Cn1c2ccc(I)cc2c2cc(I)ccc21 (configuration not stated)
Response: 84.7%

Request: Provide measured relative % inhibition value, entry: `CCOc1ccc(C2N(C)c3ccccc3N2C)cc1`
Response: -6.22%

Request: Annotate the molecule `COc1ccc(OC)c(C2C3=C(CC(C)(C)CC3=O)N(c3ccc(Cl)c(Cl)c3)C3=C2C(=O)CC(C)(C)C3)c1` with its measured relative % inhibition.
Response: 13.8%

Request: Output relative % inhibition of CC(C)(C)CC(C)(C)NCC(O)COc1ccc(Cl)cc1Cl (configuration not stated)
Response: 90.2%

Request: Name the recorded relative % inhibition of the molecule listed here: `CC(C)=CCN1CCC(C(=O)Nc2ccc(-c3nc4ccccc4[nH]3)cc2)CC1`
Response: 16.4%

Request: Name the recorded relative % inhibition of the molecule listed here: `CCOc1ccc2c(c1)CN(Cc1ccc(Cl)cc1)CO2`
Response: 16.2%

Request: Assign relative % inhibition to the following record: CN1C=C(c2ccc3ccccc3n2)C(c2c[nH]c3ccccc23)c2ccccc21 (configuration not stated)
Response: 19.8%

Request: Using known records, supply relative % inhibition for CCOc1cc2c(cc1OCC)C(c1cc(OC)c(O)cc1Cl)NCC2 (configuration not stated)
Response: 25.6%

Request: Recall and state the measured relative % inhibition for `O=C(NCc1ccco1)C1CCN(S(=O)(=O)c2ccc(Cl)cc2)CC1` .
Response: 18.1%

Request: Determine from records and report relative % inhibition for `FC(F)(F)c1ccc(Nc2nnnc3ccccc23)cc1`
Response: 25%

----------
- System: P. falciparum NF54-pfs16-GFP late (IV-V) stage gametocytes
- Experimental Details: relative % inhibition of viable gametocyte number; higher = more gametocytocidal
- Experimental Context: 5 µM; stage: late (IV-V) gametocyte; incubation 72 h
Quantity Kind: relative % inhibition (%)
Provide the reading as a plain figure in %.

Examples with answers:
molecule=Nc1ccc(-c2nc3cc(Oc4ccc(Oc5ccc6[nH]c(-c7ccc(N)cc7)nc6c5)cc4)ccc3[nH]2)cc1 unit_annotation=% experimental_result=32.9
molecule="O=C1CC(O)(C(F)(F)C(F)(F)F)Oc2ccccc21 (configuration not stated)" unit_annotation=% experimental_result=4.41
molecule=CCOc1ccc(-c2nonc2NC(=O)c2cccc(C)c2)cc1OCC unit_annotation=% experimental_result=18.4
molecule=Cc1ccc(-c2cc3c(SCC(=O)Nc4cc(C(F)(F)F)ccc4Cl)nccn3n2)cc1 unit_annotation=% experimental_result=-15.9
molecule=O=C(Nc1cccc(-c2nc3ccccc3[nH]2)c1)c1cccc(NC(=O)c2ccco2)c1 unit_annotation=% experimental_result=0.95
molecule=CCC(=O)Nc1nnc(Cc2ccc(OC)c(OC)c2)s1 unit_annotation=% experimental_result=6.51
molecule=Cc1sc2ncnc(Sc3nc4ccccc4[nH]3)c2c1C unit_annotation=% experimental_result=94.5
molecule=COc1ccc(-c2c(C)nn3c(N)c(C#N)cnc23)cc1OC unit_annotation=% experimental_result=108
molecule=Cc1ccc(C(=O)c2oc3ccc4c(C)cc(=O)oc4c3c2C)cc1 unit_annotation=% experimental_result=12
molecule=CCCCOC(=O)c1ccc(Nc2cc(C)nc3ccc(OC)cc23)cc1 unit_annotation=% experimental_result=18.5

Request: Quote relative % inhibition reported for `CC(C)(C)c1ccc(C(=O)Nc2nc3ccccc3s2)cc1` please.
Response: 2.42

Request: Consider the molecule COc1cccc(O)c1CN1CCC2(CCCN(Cc3ccc(F)cc3)C2)C1 (configuration not stated) and give its recorded relative % inhibition.
Response: 98.8

Request: Provide relative % inhibition value for the following molecule: `O=C(NCCCN1CCC(N2CCCCC2)CC1)C1=Cc2cc(Br)ccc2OC1`
Response: 19.4

----------
- System: P. falciparum NF54-pfs16-GFP late (IV-V) stage gametocytes
- Experimental Details: relative % inhibition of viable gametocyte number; higher = more gametocytocidal
- Experimental Context: 5 µM; stage: late (IV-V) gametocyte; incubation 72 h
Use 60% as the dividing line for relative % inhibition, with the line itself on the fulfilled side and lower values as not fulfilled.

molecule=c1ccc(CNc2nc(Nc3ccccc3)nc3ccccc23)cc1 class_label=fulfilled
molecule=CCCCc1c(C)nc2c(OC)cccc2c1O class_label=fulfilled
molecule=CCOc1ccc2nc(C)cc(Nc3ccc(N(C)C)cc3)c2c1 class_label="not fulfilled"
molecule="COc1ccc(C(=O)NC(c2ccc(Cl)cc2Cl)c2cc(Cl)c3cccnc3c2O)cc1 (stereo unspecified)" class_label=fulfilled

Let's switch to this molecule now.
Request: Does relative % inhibition meet or surpass 60% for `COc1ccc(-c2nonc2NC(=O)c2cccc(Cl)c2)cc1OC` ?
Response: not fulfilled

----------
- Test system: P. falciparum NF54-pfs16-GFP early (I-III) stage gametocytes
- Experimental Details: relative % inhibition of viable gametocyte number; higher = more gametocytocidal
- Experimental Context: 5 µM; stage: early (I-III) gametocyte; incubation 72 h
Decision: relative % inhibition >= 90% yields rule met, all other cases yield rule not met.

compound=Oc1ccc(-c2nc(-c3ccc4oc5ccc(-c6[nH]c(-c7ccc(O)cc7)nc6-c6ccccc6)cc5c4c3)c(-c3ccccc3)[nH]2)cc1 class_label="rule met"
compound=FC(F)(F)c1cccc(Nc2nc3ccccc3nc2Nc2cccc(C(F)(F)F)c2)c1 class_label="rule met"
compound=O=C(NCCCN1CCC(N2CCCCC2)CC1)C1=Cc2cc(Br)ccc2OC1 class_label="rule met"

Request: Given the entry OC(CNC1CCCCC1)Cn1c2ccc(I)cc2c2cc(I)ccc21 (stereo not drawn) , answer whether its relative % inhibition meets or surpasses 90%.
Response: rule met

Request: Hi team, for `COc1cc(-c2nc(-c3ccccc3)c(-c3ccccc3)[nH]2)cc(OC)c1O` , is the recorded relative % inhibition at or above 90%?
Response: rule not met

Request: // inclusive: relative % inhibition at least 90%? input: CC1(c2ccccc2)Nc2ccccc2-c2nc3ccccc3n21 (stereo not drawn)
Response: rule not met

Request: Kindly determine if relative % inhibition recorded for `CCCCCCc1cc2cc(-c3nc4ccccc4[nH]3)c(=Nc3ccccc3C)oc2cc1O` is above or exactly 90%.
Response: rule met

Request: Item `CCOc1ccc(Nc2ccnc3cc(Cl)ccc23)cc1` with relative % inhibition of 90% or above?
Response: rule not met

Request: Does relative % inhibition meet or surpass 90% for `CN(C)CCCNCc1ccc(-c2ccc(F)c(Cl)c2)o1` ?
Response: rule met

----------
// values below are reported relative % inhibition
- System: P. falciparum NF54-pfs16-GFP early (I-III) stage gametocytes
- Experimental Details: relative % inhibition of viable gametocyte number; higher = more gametocytocidal
- Experimental Context: 0.5 µM; stage: early (I-III) gametocyte; incubation 72 h
Express your answer in %, writing the number without its unit.

Field: example entries. Status: answers known.
compound=CCOc1ccccc1NC(=O)CN1CCN(C(=O)c2ccco2)CC1 experimental_result=11.3
compound=COc1ccc2nc(C)cc(Nc3ccc(Cl)cc3)c2c1 experimental_result=-10.1
compound=Cc1ccc(Nc2nc(-c3ccccn3)cs2)cc1 experimental_result=69.6
compound="CC(C)(C)c1ccc(C2CC3=Nc4ccccc4N(C(=O)c4ccccc4Cl)C(c4ccc(F)cc4)C3=C(O)C2)cc1 (stereo not given)" experimental_result=20
compound=CC(C)(C)C(=O)Nc1ccc(C(=O)Nc2cccc(-c3nc4ccccc4[nH]3)c2)cc1 experimental_result=7.02

Request: Tell me relative % inhibition of `COc1ccc2sc(N(Cc3cccnc3)C(=O)c3ccc(C#N)cc3)nc2c1` when tested on P. falciparum NF54-pfs16-GFP early (I-III) stage gametocytes.
Response: 9.23

Request: Give relative % inhibition for `O=C(Nc1ccsc1C(=O)NC1CCCCC1)c1ccc(F)cc1` tested on P. falciparum NF54-pfs16-GFP early (I-III) stage gametocytes.
Response: -1.56

Request: Please look at COCCN(C(=O)Cc1cccs1)C(C(=O)NCc1ccc(OC)cc1)c1ccc(C(C)C)cc1 (stereo not given) and tell me its recorded relative % inhibition on P. falciparum NF54-pfs16-GFP early (I-III) stage gametocytes.
Response: 25.1

Request: Name the recorded relative % inhibition of `CCN(CC)CCNc1ccnc2cc3ccccc3cc12` , assay system P. falciparum NF54-pfs16-GFP early (I-III) stage gametocytes.
Response: 99.4

Request: Fill: relative % inhibition (P. falciparum NF54-pfs16-GFP early (I-III) stage gametocytes) for this compound `CN1CCN(c2nc(Nc3ccc(O)cc3)nc3ccccc23)CC1`
Response: -17.7

Every entry's value here was drawn from the supplement of paper PMC3842684.
